# growth annotations
# System: NCI-H522 lung
# ASSAY COMMENT: NCI-60 one-dose screen, 48 h (100 = growth as untreated, 0 = no growth, -100 = all killed)
# MEASUREMENT CONDITIONS: 10 µM unless noted
The panel holds about 83,000 compounds, 20% with a hit somewhere; the sample as a whole holds those more often. Calls of active or inactive are those of the source. The calls were made as follows: active = growth percent below 10; inactive = the rest.
TEST READOUT: growth

molecule=CCc1ccc(-c2ccc(NC3CCCCCC3)nn2)cc1S(N)(=O)=O subject_of_test="NCI-H522 lung" val="87.7% (inactive)"
molecule=CCOc1cccc(/C=N/NC(=O)c2ccc(Nc3ccnc(C(F)(F)F)c3)cc2)c1O subject_of_test="NCI-H522 lung" val="2.45% (active)"
molecule=Clc1cc(Br)ccc1-c1ccc(CNCC2CCNCC2)o1 subject_of_test="NCI-H522 lung" val="55.3% (inactive)"
molecule=C=CCn1c(SCC(=O)Nc2ccc(C(=O)/C=C/c3ccccc3)cc2)nnc1-c1ccc(OC)c(OC)c1 subject_of_test="NCI-H522 lung" val="68.3% (inactive)"
molecule=O=[N+]([O-])c1cccc(N=C(Nc2cccc([N+](=O)[O-])c2)c2ccccc2)c1 subject_of_test="NCI-H522 lung" val="59.5% (inactive)"
molecule=NC(N)=N/N=C/c1ccccc1 subject_of_test="NCI-H522 lung" val="85.6% (inactive)"
molecule=COc1ccc(-c2cnc3ccnn3c2-c2cc(OC)c(OC)c(OC)c2)cc1 subject_of_test="NCI-H522 lung" val="10.1% (inactive)"
molecule="O=C(Oc1c(Cl)c(Cl)c(Cl)c(Cl)c1Cl)C1CCCN1C(=O)OCc1ccccc1 (stereo unspecified)" subject_of_test="NCI-H522 lung" val="12.4% (inactive)"
molecule=CC(C)NCCCCCNc1cc(O)cc2cccnc12 subject_of_test="NCI-H522 lung" val="86.5% (inactive)"
molecule=COc1ccc(C(=O)/C=C/c2cn(-c3ccccc3)nc2-c2cccc(Nc3ccnc4cc(Cl)ccc34)c2)cc1 subject_of_test="NCI-H522 lung" val="96.7% (inactive)"
molecule=Fc1ccc2c(CN3CCO[C@H](COc4cccc(Cl)c4)C3)c[nH]c2c1 subject_of_test="NCI-H522 lung" val="36.3% (inactive)"
molecule="CCC(=O)NC(O)C(Cl)(Cl)C(C)Cl (stereo unspecified)" subject_of_test="NCI-H522 lung" val="102% (inactive)"
molecule=O=Cc1ccc2nc(C(Cl)(Cl)Cl)ccc2c1 subject_of_test="NCI-H522 lung" val="94.4% (inactive)"
molecule=COc1ccc(CCN2COc3c([C@@H](C)CCC=C(C)C)ccc(C)c3C2)cc1OC subject_of_test="NCI-H522 lung" val="64.7% (inactive)"
molecule=CN(C)CCOc1nc2c3ccncc3cc(-c3cccc(Cl)c3)c2c2cnccc12 subject_of_test="NCI-H522 lung" val="31.9% (inactive)"
molecule="COc1ccc(C2C=C(c3ccc(Cl)cc3)N=C3SC=CN32)cc1 (stereo unspecified)" subject_of_test="NCI-H522 lung" val="113% (inactive)"
molecule="CC(C)(C)NC(=O)C(OC(=O)C1CCc2cc(F)ccc2O1)c1ccccc1Cl (stereo unspecified)" subject_of_test="NCI-H522 lung" val="82.4% (inactive)"
molecule=N#Cc1ccc(NC(=O)Nc2nc3ccc(OC(F)(F)F)cc3s2)cc1 subject_of_test="NCI-H522 lung" val="-33.5% (active)"
molecule=Cc1[nH]n(C(=O)c2ccncc2)c(=O)c1N=Nc1ccc(O)c(C(=O)O)c1 subject_of_test="NCI-H522 lung" val="104% (inactive)"
molecule="COC(=O)C(C)NC1=C(Cl)C(=O)C(NC(C)C(=O)OC)=C(Cl)C1=O (stereo unspecified)" subject_of_test="NCI-H522 lung" val="78.2% (inactive)"
molecule=O=C(Nc1ccccc1Cl)Oc1ccc2ccccc2c1 subject_of_test="NCI-H522 lung" val="79.6% (inactive)"

---

# Test system: M14 melanoma
# ASSAY COMMENT: NCI-60 one-dose screen, 48 h
# MEASUREMENT CONDITIONS: 10 µM unless noted
Compounds without any hit were thinned out: in the full panel of roughly 83,000, 20% have a hit. The source made the active and inactive calls. The calls were made as follows: active = growth percent below 10; inactive = the rest.
Labels: active, inactive

compound=CNC(=O)c1cc(Oc2ccc(NC(=O)c3nc(S(C)(=O)=O)sc3-c3ccc(F)cc3)cc2)ccn1 group=inactive
compound=O=C(/C=C/c1ccccc1)n1c(-c2ccccc2)nc2ccccc21 group=inactive
compound=O=NN(CC(=O)NNc1ccccc1)CC(=O)NNc1ccccc1 group=inactive
compound="CC1=C(C(=O)Nc2ccc(F)cc2)C(c2ccc(C)cc2)C2=C(CC(C)(C)CC2=O)N1 (centres undefined)" group=inactive
compound=O=C1/C(=C\c2cccn2C(=O)c2ccccc2)c2ccccc2N1c1c(Cl)cccc1Cl group=inactive
compound=Cc1cccc(C(=O)O)n1 group=inactive
compound=Fc1ccc2c(CN3CCO[C@H](COc4cccc(Cl)c4)C3)c[nH]c2c1 group=inactive
compound=COc1ccc(-n2nc(C(=O)NCC(=O)Nc3nc4cc(OC)ccc4s3)c3ccccc3c2=O)cc1 group=inactive
compound=Nc1cc2nc3ccccc3oc-2cc1=O group=active

---

# growth annotations
# Test system: K-562 leukemia
# ASSAY COMMENT: NCI-60 one-dose screen, 48 h (100 = growth as untreated, 0 = no growth, -100 = all killed)
# MEASUREMENT CONDITIONS: 10 µM unless noted
Compounds without any hit were thinned out: in the full panel of roughly 83,000, 20% have a hit.
TEST READOUT: growth (%)

molecule="CC(=O)c1c(O)c(C)c(O)c2c1OC1=CC(=O)/C(=C(/C)N)C(=O)C12C (configuration not stated)" subject_of_test="K-562 leukemia" test_readout=growth val=83
molecule=Oc1ccc(-c2cnc(-c3ccccc3)[nH]2)c(O)c1 subject_of_test="K-562 leukemia" test_readout=growth val=94.7
molecule=COc1cc(-c2n/c(=C\c3c(O)[nH]c4cc(Cl)ccc34)cc3c2=Nc2ccccc2-3)cc(OC)c1OC subject_of_test="K-562 leukemia" test_readout=growth val=49.1
molecule="Cc1ccc(C2CC(c3cccs3)=NN2c2ccc(S(N)(=O)=O)cc2)s1 (configuration not stated)" subject_of_test="K-562 leukemia" test_readout=growth val=77.9
molecule=COc1ccc(/C=C2\Cc3c(Br)cccc3C2=O)c(OC)c1 subject_of_test="K-562 leukemia" test_readout=growth val=64
molecule=Cc1ccc(-c2nc3ccccc3c(=O)n2/N=C/c2cccc3ccccc23)cc1 subject_of_test="K-562 leukemia" test_readout=growth val=65.5
molecule=O=C(Nc1ccc(Oc2ccc(Nc3nc4ccccc4s3)cc2)cc1)Nc1ccc(Cl)c(C(F)(F)F)c1 subject_of_test="K-562 leukemia" test_readout=growth val=6.86
molecule=Cc1ccc2cc3c(NC(=O)c4cccnc4)nn(C)c3nc2c1 subject_of_test="K-562 leukemia" test_readout=growth val=85.8
molecule="CSC1=NC(=Nc2c(C)cccc2C)C2(CCC(C(C)(C)C)CC2)N1c1ccc(Cl)cc1 (configuration not stated)" subject_of_test="K-562 leukemia" test_readout=growth val=17.7
molecule=CC(=O)c1c(C)nc(-c2cc(C)cc(Cl)c2)nc1-c1cccc(Oc2ccccc2)c1 subject_of_test="K-562 leukemia" test_readout=growth val=19.9
molecule=CCOC(=O)c1ccc(N(CCC(=O)O)C(C)=O)cc1 subject_of_test="K-562 leukemia" test_readout=growth val=103
molecule=C#CC[C@@H]1C[C@]2(C)[C@H]3CC=C4[C@H]5[C@@H](C)[C@H](C)CC[C@]5(C(=O)NCCCN5CCN(CCCN)CC5)CC[C@@]4(C)[C@]3(C)CC[C@H]2C(C)(C)[C@H]1OC(C)=O subject_of_test="K-562 leukemia" test_readout=growth val=-23.3
molecule=NC(=O)c1noc(C(=O)c2ccccc2)c1N subject_of_test="K-562 leukemia" test_readout=growth val=89.5
molecule="COc1ccc(C2C3CCc4ccccc4C3=NN2C(=O)c2cc(OC)c(OC)c(OC)c2)cc1O (configuration not stated)" subject_of_test="K-562 leukemia" test_readout=growth val=52.7
molecule=COCCCNCC(=O)Nc1c(C)cccc1C subject_of_test="K-562 leukemia" test_readout=growth val=120
molecule="NS(=O)(=O)c1ccc(N2N=C(c3cccs3)CC2c2ccccc2O)cc1 (configuration not stated)" subject_of_test="K-562 leukemia" test_readout=growth val=4.59
molecule=CC(C)=CCC[C@H](C)c1ccc(C)c2c1OCN(CCO)C2 subject_of_test="K-562 leukemia" test_readout=growth val=77.7
molecule=COc1ccc(OC)c(Nc2nc(-c3c(C)nc4sccn34)cs2)c1 subject_of_test="K-562 leukemia" test_readout=growth val=27.8
molecule=CC(=O)N(C)c1ccc(Nc2cc(C)[nH]c3ccc4ncnc4c23)cc1 subject_of_test="K-562 leukemia" test_readout=growth val=29.5
molecule=COc1cc(Cn2c(-c3ccccc3)cc3c2-c2oncc2CC3)cc(OC)c1OC subject_of_test="K-562 leukemia" test_readout=growth val=11.8
molecule="COc1ccc(C(=O)C(C#N)c2cc(OC)c(OC)c(OC)c2)cc1 (configuration not stated)" subject_of_test="K-562 leukemia" test_readout=growth val=98.1
molecule="COc1ccc(C(=O)C(CN(C)C)c2ccccc2)cc1 (configuration not stated)" subject_of_test="K-562 leukemia" test_readout=growth val=12.6
molecule=C=CC[C@]1(O)CC[C@H]2[C@@H]3CCc4cc(O)ccc4[C@H]3CC[C@@]21C subject_of_test="K-562 leukemia" test_readout=growth val=56
molecule=COc1cccc(NC(=O)[C@H](C(C)C)n2c(=O)[nH]c3ccccc3c2=O)c1 subject_of_test="K-562 leukemia" test_readout=growth val=90.4
molecule=c1ccc2c(c1)cnc1ccccc12 subject_of_test="K-562 leukemia" test_readout=growth val=97.2
molecule=C#CC[C@@H]1C[C@]2(C)[C@H]3CC=C4[C@H]5[C@@H](C)[C@H](C)CC[C@]5(C(=O)NCCCCCCCCN)CC[C@@]4(C)[C@]3(C)CC[C@H]2C(C)(C)[C@H]1OC(C)=O subject_of_test="K-562 leukemia" test_readout=growth val=-23.4
molecule="COC1CC(N)C2OC(c3ccccc3)OCC2O1 (configuration not stated)" subject_of_test="K-562 leukemia" test_readout=growth val=93.9
molecule=COc1ccc(/C(=C\c2cc(OC)c(OC)c(OC)c2)C(=O)N2CCCNCC2)cc1 subject_of_test="K-562 leukemia" test_readout=growth val=108
molecule="CCN(CC)CCC(CNc1ccnc2cc(Cl)ccc12)c1ccc(O)cc1 (configuration not stated)" subject_of_test="K-562 leukemia" test_readout=growth val=10.6
molecule=COC(=O)CNS(=O)(=O)c1ccc2c(c1)Cc1cc(S(=O)(=O)NCC(=O)OC)ccc1-2 subject_of_test="K-562 leukemia" test_readout=growth val=100
molecule=Nc1c(C(=O)Nc2cccc(Cl)c2)sc2ncc(Br)cc12 subject_of_test="K-562 leukemia" test_readout=growth val=82.9
molecule=Clc1ccc2c(c1)-n1cccc1C(c1ccc3ccccc3c1)=NC2 subject_of_test="K-562 leukemia" test_readout=growth val=49.4
molecule=COc1c(C(=O)/C=C/c2ccc(C)o2)c(O)cc2occc12 subject_of_test="K-562 leukemia" test_readout=growth val=22.5
molecule=CCOCC(O)(c1ccc(Cl)cc1)c1ccc(Cl)cc1 subject_of_test="K-562 leukemia" test_readout=growth val=88.1
molecule=CC(=O)Nc1ccc(Cl)cc1Cl subject_of_test="K-562 leukemia" test_readout=growth val=64.9
molecule=CCCCCCCCCCCC1=NC(C)(C)CN1C(C)(C)CO subject_of_test="K-562 leukemia" test_readout=growth val=57.6
molecule=C=CCn1c(SCC(=O)Nc2ccc(/C(C)=N\O)cc2)nnc1-c1cc(-c2ccccc2)nc2ccccc12 subject_of_test="K-562 leukemia" test_readout=growth val=27.6
